- measurementTarget: CDK4/Cyclin D3 (Homo sapiens, UniProt P11802)
- Sequence (P11802 whole entry): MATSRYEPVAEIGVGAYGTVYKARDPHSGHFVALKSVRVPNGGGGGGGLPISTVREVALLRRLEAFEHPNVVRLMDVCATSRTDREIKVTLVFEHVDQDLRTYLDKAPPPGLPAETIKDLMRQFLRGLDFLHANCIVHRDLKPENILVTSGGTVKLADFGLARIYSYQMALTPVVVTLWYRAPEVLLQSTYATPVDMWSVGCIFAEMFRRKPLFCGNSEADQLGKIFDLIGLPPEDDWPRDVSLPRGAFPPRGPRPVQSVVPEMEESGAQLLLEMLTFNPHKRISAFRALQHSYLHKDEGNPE
- Sequence (P30281 whole entry, further chain): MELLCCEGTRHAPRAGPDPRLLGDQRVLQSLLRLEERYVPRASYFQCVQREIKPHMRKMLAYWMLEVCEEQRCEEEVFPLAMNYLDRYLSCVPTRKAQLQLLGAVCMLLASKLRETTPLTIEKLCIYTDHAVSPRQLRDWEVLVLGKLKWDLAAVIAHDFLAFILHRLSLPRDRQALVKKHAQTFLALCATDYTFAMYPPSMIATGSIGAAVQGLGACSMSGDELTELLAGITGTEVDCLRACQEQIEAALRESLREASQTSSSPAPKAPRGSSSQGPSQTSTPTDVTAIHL
- methodNotes: Inhibition of CDK4/cyclin D3 (unknown origin) using FAM-labeled peptide and ATP as substrate preincubated for 10 mins followed by substrate addition by mobility shift assay
measurementLabel: IC50

# smilesString, measurementTarget, experimentalValue
measured = [
    ("NC(=O)c1ccc(-c2ccc(F)c(C(=O)Nc3c[nH]nc3C(=O)Nc3ccc(F)cc3)c2F)cn1", "CDK4/Cyclin D3 (Homo sapiens, UniProt P11802)", "3.48 µM"),
]

* * *

- measurementTarget: CDK6/cyclin D3 (Homo sapiens)
- Sequence (P30281 whole entry): as the sequence (P30281 whole entry, further chain) above
- Sequence (Q00534 whole entry): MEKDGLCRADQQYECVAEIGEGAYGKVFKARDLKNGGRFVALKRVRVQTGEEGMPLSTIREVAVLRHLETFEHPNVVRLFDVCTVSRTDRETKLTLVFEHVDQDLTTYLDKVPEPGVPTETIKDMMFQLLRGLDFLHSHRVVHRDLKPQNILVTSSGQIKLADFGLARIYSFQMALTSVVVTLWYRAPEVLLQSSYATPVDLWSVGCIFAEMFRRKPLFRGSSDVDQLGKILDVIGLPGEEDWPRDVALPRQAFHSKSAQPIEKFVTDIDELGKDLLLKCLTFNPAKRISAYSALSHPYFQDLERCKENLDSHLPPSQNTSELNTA
- methodNotes: Inhibition of CDK6/cyclin D3 (unknown origin) using FAM-labeled peptide and ATP as substrate preincubated for 10 mins followed by substrate addition by mobility shift assay
measurementLabel: IC50

# smilesString, measurementTarget, measurementLabel, experimentalValue
measured = [
    ("NC(=O)c1ccc(-c2ccc(F)c(C(=O)Nc3c[nH]nc3C(=O)Nc3ccc(F)cc3)c2F)cn1", "CDK6/cyclin D3 (Homo sapiens)", "IC50", "> 18 µM"),
]

* * *

- measurementTarget: CDK9/cyclin T1 (Homo sapiens, UniProt P50750)
- Sequence (O60563 whole entry): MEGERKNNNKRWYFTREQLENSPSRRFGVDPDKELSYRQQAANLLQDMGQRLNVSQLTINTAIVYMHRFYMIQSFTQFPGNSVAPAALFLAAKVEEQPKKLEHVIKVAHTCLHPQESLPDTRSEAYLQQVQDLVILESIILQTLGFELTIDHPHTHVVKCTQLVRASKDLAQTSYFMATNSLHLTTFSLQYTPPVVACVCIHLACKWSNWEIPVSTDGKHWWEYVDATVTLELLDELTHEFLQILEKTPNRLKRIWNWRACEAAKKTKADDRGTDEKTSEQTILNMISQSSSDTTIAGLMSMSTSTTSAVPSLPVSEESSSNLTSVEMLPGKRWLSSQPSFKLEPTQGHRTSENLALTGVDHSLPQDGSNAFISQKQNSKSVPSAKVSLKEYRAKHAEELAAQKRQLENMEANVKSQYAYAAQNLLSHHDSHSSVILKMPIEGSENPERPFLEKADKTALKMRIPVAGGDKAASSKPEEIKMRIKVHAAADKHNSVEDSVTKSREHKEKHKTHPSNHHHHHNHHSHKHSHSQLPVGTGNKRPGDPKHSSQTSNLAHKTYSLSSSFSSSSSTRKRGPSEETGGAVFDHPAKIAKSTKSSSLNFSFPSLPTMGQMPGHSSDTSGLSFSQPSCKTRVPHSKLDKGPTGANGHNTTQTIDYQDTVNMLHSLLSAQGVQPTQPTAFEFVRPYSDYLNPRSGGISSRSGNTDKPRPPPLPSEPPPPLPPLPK
- Sequence (P50750 whole entry): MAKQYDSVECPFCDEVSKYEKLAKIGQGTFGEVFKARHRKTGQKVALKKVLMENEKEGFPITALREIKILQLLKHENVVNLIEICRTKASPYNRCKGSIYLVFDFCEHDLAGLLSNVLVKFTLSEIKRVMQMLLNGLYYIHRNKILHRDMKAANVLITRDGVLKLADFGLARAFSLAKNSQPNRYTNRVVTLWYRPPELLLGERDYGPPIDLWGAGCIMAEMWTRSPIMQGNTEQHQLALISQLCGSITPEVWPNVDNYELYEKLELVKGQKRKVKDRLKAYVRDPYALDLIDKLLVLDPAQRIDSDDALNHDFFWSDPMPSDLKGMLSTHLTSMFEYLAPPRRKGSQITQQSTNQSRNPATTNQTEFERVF
- methodNotes: Inhibition of CDK9/cyclin T1 (unknown origin) using FAM-labeled peptide and ATP as substrate preincubated for 10 mins followed by substrate addition by mobility shift assay
measurementLabel: IC50 (nM)

# smilesString, measurementTarget, measurementLabel, unitsText, experimentalValue
data = [
    ("NC(=O)c1ccc(-c2ccc(F)c(C(=O)Nc3c[nH]nc3C(=O)Nc3ccc(F)cc3)c2F)cn1", "CDK9/cyclin T1 (Homo sapiens, UniProt P50750)", "IC50", "nM", 1120),
]

* * *

- methodNotes: Cytotoxicity against human LX2 cells assessed as inhibition of cell growth at 100 uM measured after 96 hrs by Celltiter-Glo luminescent assay
- Assay type: cell-based

# smilesString, unitsText, inhibition at 96 h, 100 µM
measured = [
    ("NC(=O)c1ccc(-c2ccc(F)c(C(=O)Nc3c[nH]nc3C(=O)Nc3ccc(F)cc3)c2F)cn1", "%", 32.5),
    ("O=C(NC1CCNCC1)c1n[nH]cc1NC(=O)c1c(Cl)cccc1Cl", "%", 39.4),
]

* * *

- measurementTarget: CDK2/Cyclin A2 (Homo sapiens)
- methodNotes: Inhibition of CDK2/cyclin A2 (unknown origin) using FAM-labeled peptide and ATP as substrate preincubated for 10 mins followed by substrate addition by mobility shift assay
pIC50: −log10 of the molar value.
Quick rule: pIC50 of at least 7 means 1, below that means 0.

# smilesString, group
rows = [
    ("O=C(NCCCN1CCOCC1)c1ccc(F)c(-c2ccc(F)c(C(=O)Nc3c[nH]nc3C(=O)Nc3ccc(F)cc3)c2F)c1", 0),
    ("O=C(Nc1ccc(F)cc1)c1n[nH]cc1NC(=O)c1c(F)ccc(-c2cccnc2)c1F", 1),
    ("COC(=O)c1cccc(-c2ccc(F)c(C(=O)Nc3c[nH]nc3C(=O)Nc3ccc(F)cc3)c2F)c1", 0),
    ("Cc1ccc(C(=O)NCCCN2CCOCC2)cc1-c1ccc(F)c(C(=O)Nc2c[nH]nc2C(=O)Nc2ccc(F)cc2)c1F", 0),
    ("NC(=O)c1cccc(-c2ccc(F)c(C(=O)Nc3c[nH]nc3C(=O)Nc3ccc(F)cc3)c2F)c1", 1),
    ("O=C(Nc1ccc(F)cc1)c1n[nH]cc1NC(=O)c1c(F)ccc(-c2ccc(F)nc2)c1F", 1),
    ("NS(=O)(=O)c1ccc(Nc2nc(-c3cccc(-c4ccccc4)c3)c3nc[nH]c3n2)cc1", 0),
    ("NC(=O)c1ccc(-c2ccc(F)c(C(=O)Nc3c[nH]nc3C(=O)Nc3ccc(F)cc3)c2F)cn1", 1),
    ("O=C(Nc1ccc(F)cc1)c1n[nH]cc1NC(=O)c1c(F)ccc(-c2cccc(O)c2)c1F", 1),
]
